METHOD_DESCRIPTION: Cell viability (CCK8) in normal MEC1 cells
Assay type: cell-based
Method: FIGS. 2A and 2B illustrate the anticancer effects and selectivity of 5-FU and compounds 1a-1c. Cell viability was analyzed after the breast cancer MCF7 cells (FIG. 2A) and normal MEC1 cells (FIG. 2B) were treated with 5-FU or compounds 1a-1c at different concentrations. Data are presented as mean±SD, n=4. Cell Counting Kit-8 (CCK8, Dojingo) was used to carry out the cytotoxicity assessment of the prodrugs. […]
OBSERVATION_TYPE: viability at 100 µM

Field viability at 100 µM (entry CC1(C)OB(c2ccc(Cn3cc(F)c(=O)[nH]c3=O)cc2)OC1(C)C ) reads > 95%
